Where do these numbers come from? They come from patent US20240376113A1.

study-system: ENPP-1 ECD (Homo sapiens (Human), UniProt P22413)
Sequence (P22413 98-925): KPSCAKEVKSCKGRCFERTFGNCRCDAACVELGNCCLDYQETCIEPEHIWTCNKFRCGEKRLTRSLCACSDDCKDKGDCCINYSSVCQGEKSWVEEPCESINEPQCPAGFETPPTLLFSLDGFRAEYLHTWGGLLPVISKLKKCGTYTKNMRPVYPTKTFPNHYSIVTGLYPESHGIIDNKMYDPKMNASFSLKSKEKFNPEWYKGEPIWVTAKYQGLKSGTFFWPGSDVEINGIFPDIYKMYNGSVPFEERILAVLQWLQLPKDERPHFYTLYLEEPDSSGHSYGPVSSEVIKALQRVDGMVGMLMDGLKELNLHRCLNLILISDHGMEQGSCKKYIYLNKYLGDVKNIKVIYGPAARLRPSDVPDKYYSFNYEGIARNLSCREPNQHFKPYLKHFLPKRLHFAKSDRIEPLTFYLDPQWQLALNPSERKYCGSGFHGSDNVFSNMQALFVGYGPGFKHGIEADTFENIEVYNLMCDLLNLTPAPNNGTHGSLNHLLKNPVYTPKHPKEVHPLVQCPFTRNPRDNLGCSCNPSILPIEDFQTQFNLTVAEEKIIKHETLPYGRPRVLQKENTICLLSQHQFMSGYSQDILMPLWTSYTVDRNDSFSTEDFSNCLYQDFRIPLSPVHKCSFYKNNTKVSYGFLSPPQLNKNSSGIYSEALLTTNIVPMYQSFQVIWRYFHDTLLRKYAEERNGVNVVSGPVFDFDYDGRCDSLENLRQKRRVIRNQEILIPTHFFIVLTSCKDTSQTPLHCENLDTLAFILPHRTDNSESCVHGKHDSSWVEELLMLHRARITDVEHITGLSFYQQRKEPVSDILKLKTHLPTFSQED
experimental-details: Inhibition of ENPP1 hydrolysis of 2′,3′-cGAMP (Assay 1)
assay-setup: Assay 1 KI values (class), 2,3-cGAMP 24 μM, AMP-Glo luminescence, KI from IC50 via Cheng/Prusoff
pKi: −log10 of the molar value.
pKi for assorted compounds

| compound | pKi |
| --- | --- |
| Cc1nc2ncnn2c(N(C)C)c1Cc1ccc(S(=N)(=O)CCO)cc1 (stereo not drawn) [Compound 59] | > 8.52 |
| CC(=O)NCCS(=N)(=O)c1ccc(Cc2c(C)nc3ncnn3c2N(C)C)cc1 (stereo not drawn) [Compound 64] | > 8.52 |
| CCS(=N)(=O)c1ccc(Cc2c(C)nc3ncnn3c2N(C)C)cc1 (stereo not drawn) [Compound 57] | > 8.52 |
| Cc1nc2ncnn2c(N(C)C)c1Cc1ccc(S(=N)(=O)C2COC2)cc1 (stereo not drawn) [Compound 62] | > 8.52 |
| Cc1nc2ncnn2c(C2CC2)c1Cc1ccc(S(C)(=N)=O)cc1 (stereo not drawn) [Compound 71] | 6.52 to 8.52 |

Please find the next compound below.
Enquiry: Query for ENPP-1 ECD (Homo sapiens (Human), UniProt P22413): what pKi does the record show for Cc1nc2ncnn2c(N(C)C)c1-c1ccc2c(c1)CN(S(N)(=O)=O)CC2 [Compound 69] ?
Return: 6.52 to 8.52

---

study-system: ENPP-1 ECD (Homo sapiens (Human))
experimental-details: Inhibition of ENPP1 hydrolysis of 2′,3′-cGAMP (Assay 1)
assay-setup: read-out: Assay 1 KI; 2,3-cGAMP 24 μM, AMP-Glo luminescence, KI from IC50 via Cheng/Prusoff
Entries and their log10 Ki values follow.
The base-10 logarithm of Ki, taken with Ki in nM, is what appears here.

Recorded results for 8 compounds are shown here.
| compound | parameter-measured | reported-value |
| --- | --- | --- |
| Cc1nc2ncnn2c(N(C)C)c1Cc1ccc([S@](=N)(=O)CCC(=O)O)cc1 [Compound 72b] | log10 Ki | -0.01 |
| CCN(CC)c1c(Cc2ccc(S(C)(=N)=O)cc2)c(C)nc2ncnn12 (stereo not shown) | log10 Ki | 1.58 |
| CS(=N)(=O)c1ccc(Cc2cnc3ncnn3c2N2CCCC2)cc1 (stereo not shown) | log10 Ki | 0.23 |
| Cc1nc2ncnn2c(N(C)C)c1Cc1ccc(S(N)(=O)=O)cc1 | log10 Ki | -0.80 |
| Cc1nc2ncnn2c(N(C)C)c1Cc1ccc([S@@](C)(=N)=O)cc1 (single isomer, unassigned) [Compound 1b] | log10 Ki | -1.82 |
| Cc1cc2ncnn2c(N(C)C)c1Cc1ccc(S(=N)(=O)CCC(=O)O)cc1 (stereo not shown) | log10 Ki | -1.74 |
| Cc1nc2ncnn2c(N(C)C2CCC2)c1Cc1ccc(S(C)(=N)=O)cc1 (stereo not shown) | log10 Ki | 1.43 |
| Cc1nc2ncnn2c(N2CCCC2)c1Cc1ccc([S@](C)(=N)=O)cc1 (single isomer, unassigned) | log10 Ki | -1.27 |

Enquiry: Looking for the measured log10 Ki of Cc1nc2ncnn2c(N2CCCC2)c1Cc1ccc(B(O)O)cc1 , can you help?
Return: -0.09

Enquiry: What do you get for Cc1nc2nccn2c(N(C)C)c1Cc1ccc(S(C)(=N)=O)cc1 (stereo not shown) ?
Return: -0.60

Enquiry: Can you check CC(=O)NCCS(=N)(=O)c1ccc(Cc2c(C)nc3ncnn3c2N(C)C)cc1 (stereo not shown) next?
Return: -1.18

Enquiry: Also, COCCS(=N)(=O)c1ccc(Cc2c(C)nc3ncnn3c2N(C)C)cc1 (stereo not shown) please.
Return: -1.06

Enquiry: Now consider Cc1c(Cc2ccc(S(C)(=N)=O)cc2)c(N(C)C)n2ccnc2c1C#N (stereo not shown) .
Return: -1.35

---

study-system: ENPP-1 ECD (Homo sapiens (Human))
experimental-details: Inhibition of ENPP1 hydrolysis of 2′,3′-cGAMP (Assay 1)
assay-setup: Assay 1 KI, 2,3-cGAMP 24 μM, AMP-Glo luminescence, KI from IC50 via Cheng/Prusoff
parameter-measured: Ki (µM)
Entry rule: numbers only, all in µM.

Enquiry: State the recorded Ki for this entry: Cc1nc2ncnn2c(N(C)C)c1Cc1cccc(NS(N)(=O)=O)c1
Return: 0.222

---

study-system: ENPP1 on MDA-MB-231 cells (Homo sapiens (Human), UniProt P22413)
Sequence (P22413 whole entry): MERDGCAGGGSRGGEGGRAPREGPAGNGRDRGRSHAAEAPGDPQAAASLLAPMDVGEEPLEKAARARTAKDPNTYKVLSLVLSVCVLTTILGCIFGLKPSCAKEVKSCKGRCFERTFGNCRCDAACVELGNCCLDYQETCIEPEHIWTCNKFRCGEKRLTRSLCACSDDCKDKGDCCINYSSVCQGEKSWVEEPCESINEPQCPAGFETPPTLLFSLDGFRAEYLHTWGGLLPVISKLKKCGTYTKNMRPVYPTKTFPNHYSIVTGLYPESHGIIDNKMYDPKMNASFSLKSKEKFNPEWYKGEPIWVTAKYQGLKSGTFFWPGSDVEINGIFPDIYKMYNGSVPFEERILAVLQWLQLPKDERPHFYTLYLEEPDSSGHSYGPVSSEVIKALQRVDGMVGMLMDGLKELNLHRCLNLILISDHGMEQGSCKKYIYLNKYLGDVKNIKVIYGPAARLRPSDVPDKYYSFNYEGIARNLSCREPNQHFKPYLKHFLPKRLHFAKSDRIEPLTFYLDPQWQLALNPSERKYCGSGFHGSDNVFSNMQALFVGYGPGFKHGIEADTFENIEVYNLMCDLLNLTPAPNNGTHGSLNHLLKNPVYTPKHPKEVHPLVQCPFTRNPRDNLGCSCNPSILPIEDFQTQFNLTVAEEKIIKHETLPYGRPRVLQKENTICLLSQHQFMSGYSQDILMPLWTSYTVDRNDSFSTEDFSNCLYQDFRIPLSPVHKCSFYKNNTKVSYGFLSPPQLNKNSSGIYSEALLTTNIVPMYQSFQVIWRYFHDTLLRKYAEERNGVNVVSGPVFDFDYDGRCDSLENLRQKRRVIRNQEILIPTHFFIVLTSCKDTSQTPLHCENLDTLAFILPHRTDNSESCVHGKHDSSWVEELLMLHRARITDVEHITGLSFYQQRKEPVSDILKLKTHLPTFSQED
experimental-details: Inhibition of ENPP1 hydrolysis of AMP p-nitrophenyl ester on MDA-MB-231 cells (Assay 2)
Format: cell-based
assay-setup: pNP-AMP 0.25 mM, MDA-MB-231 cells, 37° C. 3 h, KI,app from IC50 via Cheng/Prusoff; read-out: Assay 2 KI,app values (class)
parameter-measured: Ki

Enquiry: Consider the molecule Cc1nc2nccn2c(N(C)C)c1Cc1ccc(S(C)(=N)=O)cc1 (stereo not drawn) and give its measured Ki.
Return: > 10 nM

Enquiry: Next entry: CN(C)c1c(Cc2ccc(S(C)(=N)=O)cc2)c(Cl)nc2ncnn12 (stereo not drawn)
Return: < 10 nM

---

study-system: ENPP1 on MDA-MB-231 cells (Homo sapiens (Human), UniProt P22413)
experimental-details: Inhibition of ENPP1 hydrolysis of AMP p-nitrophenyl ester on MDA-MB-231 cells (Assay 2)
Type: cell-based
assay-setup: pNP-AMP 0.25 mM, MDA-MB-231 cells, 37° C. 3 h, KI,app from IC50 via Cheng/Prusoff; read-out: Assay 2 KI, app
Source text: Inhibition of ENPP1 Hydrolysis of AMP p-Nitrophenyl Ester on MDA-MB-231 Cells (Assay 2) ENPP1 is normally expressed on the human metastatic breast cancer cell line MDA-MB-231. Hydrolysis of the p-nitrophenyl ester of AMP (pNP-AMP), an isostere of ATP, is selectively catalyzed by ENPP1 in the supernatant of MDA-MB-231 cell cultures. […]
Consider the cut-off 4 nM. If the recorded Ki is strictly smaller, the label is Met; if not, the label is Not met.

// below: answered molecules
| molecule | qualitative-label |
| --- | --- |
| Cc1cc2ncnn2c(N2CCCCC2)c1Cc1ccc(S(C)(=N)=O)cc1 (centres unmarked) [Compound 76] | Not met |
| CC(=O)NCCS(=N)(=O)c1ccc(Cc2c(C)nc3ncnn3c2N(C)C)cc1 (centres unmarked) [Compound 64] | Not met |
| Cc1nc2ncnn2c(N(C)C)c1Cc1ccc(S(=N)(=O)CCC(=O)O)cc1 (centres unmarked) [Compound 72] | Met |
| Cc1nc2nccn2c(N(C)C)c1Cc1ccc([S@](C)(=N)=O)cc1 [Compound 29a] | Met |

As a next step, examine the molecule that follows.
Enquiry: Bench note: check whether Cc1nc2ncnn2c(N(C)C)c1Cc1ccc(S(C)(=N)=O)cc1 (centres unmarked) [Compound 1] shows Ki below 4 nM
Return: Not met

---

study-system: ENPP-1 ECD (Homo sapiens (Human))
experimental-details: Inhibition of ENPP1 hydrolysis of 2′,3′-cGAMP (Assay 1)
assay-setup: Assay 1 KI values (class), 2,3-cGAMP 24 μM, AMP-Glo luminescence, KI from IC50 via Cheng/Prusoff
pKi: −log10 of the molar value.
parameter-measured: pKi

// below: answered compounds
| compound | pKi |
| --- | --- |
| Cc1nc2ncnn2c(N(C)C)c1Cc1cccc(S(N)(=O)=O)c1 [Compound 65] | 6.52 to 8.52 |
| CS(=N)(=O)c1ccc(Cc2c(Cl)nc3ncnn3c2N2CCCC2)cc1 (stereo not drawn) [Compound 78] | > 8.52 |

Enquiry: Kindly state the measured pKi obtained for Cc1nc2nccn2c(N2CCCCC2)c1Cc1ccc(S(C)(=N)=O)cc1 (stereo not drawn) [Compound 83] with ENPP-1 ECD (Homo sapiens (Human)).
Return: > 8.52

Enquiry: Would you mind doing CS(=N)(=O)c1ccc(Cc2c(C(F)(F)F)nc3ncnn3c2N2CCCCC2)cc1 (stereo not drawn) [Compound 52] as well?
Return: 6.52 to 8.52

Enquiry: What do you have for Cc1nc2ncnn2c(N(C)C)c1Cc1ccc(S(=N)(=O)CCN)cc1 (stereo not drawn) [Compound 73] ?
Return: > 8.52

Enquiry: // same read-out, input: Cc1nc2ncnn2c(N(C)C)c1CC1CCN(S(N)(=O)=O)CC1 [Compound 15]
Return: 6.52 to 8.52

Enquiry: What do we get for Cc1c(Cc2ccc(S(C)(=N)=O)cc2)c(N(C)C)n2ccnc2c1C#N (stereo not drawn) [Compound 80] ?
Return: > 8.52

Enquiry: And for Cc1nc2ncnn2c(N2CC(C)(C)C2)c1Cc1ccc(S(C)(=N)=O)cc1 (stereo not drawn) [Compound 42] ?
Return: 6.52 to 8.52

Enquiry: Request: CN(C)c1c(Cc2ccc(S(C)(=N)=O)cc2)c(Cl)nc2ncnn12 (stereo not drawn) [Compound 74]
Return: > 8.52

---

study-system: ENPP1 on MDA-MB-231 cells (Homo sapiens (Human))
experimental-details: Inhibition of ENPP1 hydrolysis of AMP p-nitrophenyl ester on MDA-MB-231 cells (Assay 2)
Assay type: cell-based
assay-setup: pNP-AMP 0.25 mM, MDA-MB-231 cells, 37° C. 3 h, KI,app from IC50 via Cheng/Prusoff; read-out: Assay 2 KI, app
parameter-measured: log10 Ki (log10 of the value in nM)
Scale: decimal log of Ki, Ki in nM.

Would you please look over these solved cases?
| compound | study-system | log10 Ki |
| --- | --- | --- |
| Cc1c(Cc2ccc(S(C)(=N)=O)cc2)c(N(C)C)n2ncnc2c1C#N (centres unmarked) | ENPP1 on MDA-MB-231 cells (Homo sapiens (Human)) | -0.14 |
| Cc1nc2ncnn2c(N2CCCC2)c1Cc1ccc(B(O)O)cc1 | ENPP1 on MDA-MB-231 cells (Homo sapiens (Human)) | 1.13 |
| Cc1cc2ncnn2c(N(C)C)c1Cc1ccc(S(C)(=N)=O)cc1 (centres unmarked) | ENPP1 on MDA-MB-231 cells (Homo sapiens (Human)) | 0.03 |
| Cc1nc2ncnn2c(N(C)C)c1Cc1ccc([S@@](C)(=N)=O)cc1 (single isomer, unassigned) [Compound 49a] | ENPP1 on MDA-MB-231 cells (Homo sapiens (Human)) | 0.20 |
| CCS(=N)(=O)c1ccc(Cc2c(C)nc3ncnn3c2N(C)C)cc1 (centres unmarked) | ENPP1 on MDA-MB-231 cells (Homo sapiens (Human)) | 0.98 |
| Cc1c(Cc2ccc([S@@](C)(=N)=O)cc2)c(N(C)C)n2ncnc2c1C#N (single isomer, unassigned) [Compound 85a] | ENPP1 on MDA-MB-231 cells (Homo sapiens (Human)) | -0.53 |

Enquiry: Endpoint output: log10 Ki of Cc1cc2ncnn2c(N(C)C)c1Cc1ccc(S(=N)(=O)CCC(=O)O)cc1 (centres unmarked) . Value?
Return: -0.35

Enquiry: Also, Cc1nc2ncnn2c(N2CCCCC2)c1Cc1ccc(S(C)(=N)=O)cc1 (centres unmarked) please.
Return: 1.17
